Provide the reported pIC50 of each item.
system: Glutamate NMDA receptor
test_method_notes: NMDA receptor antagonistic activity was assessed from the ability to displace [3H]CPP29,30 from rat cortical membranes.
Answer as the number alone; pIC50 is minus log10 of concentration in mol/L.

Query :: Request the reported pIC50 associated with NC(CCCCCP(=O)(O)O)C(=O)O (stereo not drawn) [AP-7]
Result :: 6.10

Query :: Try the compound NC(C(=O)O)c1cccc(P(=O)(O)O)c1 (stereo not drawn)
Result :: 4.76

Query :: Try the compound NC(C(=O)O)c1cccc(CP(=O)(O)O)c1 (stereo not drawn)
Result :: 5.03

====

system: Glutamate NMDA receptor
test_method_notes: NMDA receptor antagonistic activity was assessed from the ability to displace [3H]CPP29,30 from rat cortical membranes
recorded_metric: IC50 (nM)
Answer format: numeric, nM implied, no suffix.

Query :: Request the reported IC50 associated with NC(C(=O)O)c1ccc(CP(=O)(O)O)cc1 (stereo unspecified)
Result :: 1010
